Target: T1, MUC1-SEA-His protein (UniProt P15941 1039-1148, limits assumed)
T1 construct: domain: SEA; Recombinant antigen used for ELISA coating and as Biacore analyte; also called MUC-SEA-His; antigen protein; not shown: His tag
T1 sequence (looked up): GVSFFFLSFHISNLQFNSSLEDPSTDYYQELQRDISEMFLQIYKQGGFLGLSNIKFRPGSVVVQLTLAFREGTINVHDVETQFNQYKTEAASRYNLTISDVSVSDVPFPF
Test: SPR Biacore T200, antibody captured, antigen as analyte
What koff was measured for each of the following?
One number for each entry, in s⁻¹.

// below: answered binders
[
  {
    "binder": "VH2 + VL1 (antibody, V domains shown, Humanized IgG expressed in HEK293; also called humanized antibody VH2+VL1) VH: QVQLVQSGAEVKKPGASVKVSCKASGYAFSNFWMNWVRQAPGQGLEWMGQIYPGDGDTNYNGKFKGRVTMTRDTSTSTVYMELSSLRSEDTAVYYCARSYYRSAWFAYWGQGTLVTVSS VL: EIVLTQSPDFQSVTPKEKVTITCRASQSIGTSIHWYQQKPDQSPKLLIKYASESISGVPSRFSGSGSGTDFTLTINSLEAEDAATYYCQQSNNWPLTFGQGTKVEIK",
    "property": "koff",
    "value unit": "s⁻¹",
    "result number": 0.00133
  },
  {
    "binder": "VH3 + VL5 (antibody, V domains shown, Humanized IgG expressed in HEK293; also called humanized antibody VH3+VL5) VH: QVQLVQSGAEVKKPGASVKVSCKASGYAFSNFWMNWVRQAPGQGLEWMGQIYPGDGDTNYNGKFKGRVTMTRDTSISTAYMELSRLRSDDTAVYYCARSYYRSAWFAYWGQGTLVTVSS VL: DIVMTQSPSLLSASTGDRVTISCRASQSIGTSIHWYQQKPGKAPELLIYYASESISGVPSRFSGSGSGTDFTLTISCLQSEDFATYYCQQSNNWPLTFGQGTKVEIK",
    "property": "koff",
    "value unit": "s⁻¹",
    "result number": 0.023
  },
  {
    "binder": "VH3 + VL1 (antibody, V domains shown, Humanized IgG expressed in HEK293; also called humanized antibody VH3+VL1) VH: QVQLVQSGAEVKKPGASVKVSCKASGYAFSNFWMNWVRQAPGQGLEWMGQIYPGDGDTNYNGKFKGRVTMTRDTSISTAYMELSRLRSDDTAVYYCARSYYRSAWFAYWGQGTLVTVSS VL: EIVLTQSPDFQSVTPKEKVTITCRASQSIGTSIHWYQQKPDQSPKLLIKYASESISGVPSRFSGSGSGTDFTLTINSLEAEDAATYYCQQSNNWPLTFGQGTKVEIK",
    "property": "koff",
    "value unit": "s⁻¹",
    "result number": 0.0015
  }
]

Q: Query: koff; subject: VH3 + VL4 (antibody, V domains shown, Humanized IgG expressed in HEK293; also called humanized antibody VH3+VL4) VH: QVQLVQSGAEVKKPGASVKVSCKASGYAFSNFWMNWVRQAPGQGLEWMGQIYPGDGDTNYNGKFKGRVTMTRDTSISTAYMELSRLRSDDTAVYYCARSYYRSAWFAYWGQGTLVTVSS VL: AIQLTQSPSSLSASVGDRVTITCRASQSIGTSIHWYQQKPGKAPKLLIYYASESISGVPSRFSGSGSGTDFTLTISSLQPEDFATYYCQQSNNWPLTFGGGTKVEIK
Result: 0.00902
